system: 786-0; assay: NCI tumour cell line growth inhibition, 48 h
Calls of active or inactive are those of the source. Cut-off read from the data, not from the text of the source: active = GI50 up to about 1.1 µM and inactive = higher.
Give GI50 for every item shown.

[[record]]
molecule = "CC1(C)CC2(C)ON=C(c3ccccc3)N2c2ccccc2N1 (stereo not drawn)"
experimental_value = "23.3 µM (inactive)"

[[record]]
molecule = "COc1ccc(/C=C/CO)cc1OC"
experimental_value = "> 100 µM (inactive)"

[[record]]
molecule = "CCOC(=O)[C@H]1Nc2ccc([N+](=O)[O-])cc2C2c3ccccc3CC21 (stereo partly drawn)"
experimental_value = "19.7 µM (inactive)"


Batch: GI50 for all items listed.
1. COC1=CC(=O)c2c(O)c3c(c(O)c2C1=O)C=C(C)OC3O (stereo not drawn)
2. COC(=O)C(CCSc1ccccc1)C(=O)OC
3. COc1ccc2c(N=[N+]=[N-])c(-c3ccccc3)c(=O)oc2c1
4. COc1cc(CC2c3cc(OC)c(OC)cc3CCN2C)c(C(=O)O)cc1OC (stereo not drawn)

3.24 µM (inactive)
> 100 µM (inactive)
> 100 µM (inactive)
> 100 µM (inactive)

Param item = Cc1cc2occ(C)c(=O)c2c2c1OC(C)(C)S2 ; retrieve measured GI50.
> 100 µM (inactive)

###

test system: KM12; experiment: NCI tumour cell line growth inhibition, 48 h
Active and inactive are the calls of the source. Rule as the data show it: active = GI50 up to about 1.1 µM and inactive = higher.
Tick one outcome: TRUE for active, FALSE for inactive

Field: example entries. Status: answers known.
[[record]]
molecule = "O=C1C(Cl)=C(Cl)C(=O)C2=C1C1c3ccccc3C2c2ccccc21"
label_value = "FALSE"

[[record]]
molecule = "COc1ccc2c(c1)[n+]([O-])c(C(=O)C/C(=N/OCCCc1ccccc1)C(=O)NC13CC4CC(CC(C4)C1)C3)c(C)[n+]2[O-]"
label_value = "FALSE"

[[record]]
molecule = "NNC(=O)C1(NC(=O)c2ccccc2)C(c2ccccc2)C(c2ccccc2)=NN1c1ccccc1 (centres undefined)"
label_value = "FALSE"

[[record]]
molecule = "COc1ccc(-c2c3c(nc4nc(SCC(=O)c5ccc(Br)cc5)nc(N)c24)CCCC3)cc1OC"
label_value = "FALSE"

[[record]]
molecule = "Cc1ccc2c(c1)C(=O)/C(=C\\c1ccc(Cl)cc1)CCS2(=O)=O"
label_value = "FALSE"

[[record]]
molecule = "CCOP(=O)(OCC)C(Nc1ccc(F)cc1)c1cccc([N+](=O)[O-])c1 (centres undefined)"
label_value = "FALSE"

[[record]]
molecule = "CCN(CC)CCC(=O)N1C/C(=C/c2ccccc2)C(=O)/C(=C\\c2ccccc2)C1"
label_value = "TRUE"

[[record]]
molecule = "CN1/C(=N\\c2ccccc2)S/C1=N/c1ccccc1"
label_value = "FALSE"


Shifting focus to the molecule that follows.
What did this assay record as the result for O=C(Nc1ccc(Cl)cc1)C1C(=O)C(=O)N(c2ccc(Cl)cc2)C1=O (centres undefined) ?
FALSE

###

test system: HCT-116; experiment: NCI tumour cell line growth inhibition, 48 h
Calls of active or inactive are those of the source. Rule as the data show it: active = GI50 up to about 1.1 µM and inactive = higher.
Tick one outcome: active, inactive

Field: example entries. Status: answers known.
[[record]]
compound = "O=C(O)C1CC2CC(=O)C1C2 (stereo not drawn)"
label_value = "inactive"

[[record]]
compound = "CN(C)CCNC(=O)c1ccc(Cl)c2cc3ccccc3nc12"
label_value = "active"

[[record]]
compound = "COc1cc2c3c(c1OC)-c1ccccc1C(C(OC(C)=O)c1ccccc1)C3N(C)CC2 (stereo not drawn)"
label_value = "inactive"


What did this assay record as the result for Cc1ccc(F)c2[nH]c(-c3ccccc3)cc(=O)c12 ?
inactive

What did this assay record as the result for CCCCCCCCCCCC(=O)OCC1OC(OC)C(NC(=O)N(CCCl)N=O)C(O)C1O (stereo not drawn) ?
inactive

What did this assay record as the result for Cc1cc2c(nn1)-c1ccccc1C2=O ?
inactive

What did this assay record as the result for COc1cc2cc3c4c(cc(OC)c(OC)c4c2cc1OC)CCN3C(=O)CCCC(=O)O ?
inactive

What did this assay record as the result for COc1cc2c(cc1C)NC(=O)/C2=C/c1cccnc1 ?
inactive
